Hello, the source for this data is ChEMBL document CHEMBL4382205, in case you need it.

target: Tryptophan 2,3-dioxygenase (Homo sapiens, UniProt P48775); experiment: Uncompetitive inhibition of recombinant full length C-terminal His-tagged human TDO expressed in Escherichia coli using L-Trp as substrate after 30 mins by Dixon plot analysis
Sequence (P48775 whole entry): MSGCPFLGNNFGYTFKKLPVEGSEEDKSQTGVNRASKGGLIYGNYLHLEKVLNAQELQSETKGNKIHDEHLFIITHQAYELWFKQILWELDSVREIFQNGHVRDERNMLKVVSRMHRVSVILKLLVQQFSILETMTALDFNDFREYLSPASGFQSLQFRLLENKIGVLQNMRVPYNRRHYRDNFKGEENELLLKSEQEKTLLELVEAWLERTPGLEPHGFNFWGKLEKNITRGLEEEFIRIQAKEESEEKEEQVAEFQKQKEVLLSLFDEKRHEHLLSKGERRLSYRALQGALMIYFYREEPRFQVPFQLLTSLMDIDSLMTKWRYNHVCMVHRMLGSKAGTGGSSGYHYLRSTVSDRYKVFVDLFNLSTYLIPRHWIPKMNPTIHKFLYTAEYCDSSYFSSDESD
pKi: −log10 of the molar value.
PARAMETER MEASURED: pKi

# example entries with known answers
* NS(=O)(=O)NCCNc1nonc1C(=NO)Nc1ccc(F)c(Br)c1 [EPACADOSTAT] | 4.66
* O=C1c2cc(F)ccc2-n2c1nc1ccccc1c2=O | 6.47

I = O=C1c2cc(Br)ccc2-n2c1nc1ccccc1c2=O
II = O=C1c2cc([N+](=O)[O-])ccc2-n2c1nc1ccccc1c2=O
III = O=C1c2c(Cl)cccc2-n2c1nc1ccccc1c2=O
IV = O=C1c2ccccc2-n2c1nc1ccccc1c2=O [TRYPTANTHRIN]
rank_up(items): orders items by reported pKi in ascending numerical order. // ordering of labels required in reply III, IV, I, II

---

molecular target: Tryptophan 2,3-dioxygenase (Homo sapiens); test: Inhibition of recombinant full length C-terminal His-tagged human TDO expressed in Escherichia coli using L-Trp as substrate after 30 mins
pIC50: −log10 of the molar value.
PARAMETER MEASURED: pIC50

• O=C1c2cc(Br)ccc2-n2c1nc1ccccc1c2=O = 6.03
• Cc1ccc2c(c1)C(=O)c1nc3ccccc3c(=O)n1-2 = 5.49

I = O=C1c2cc(F)ccc2-n2c1nc1ccccc1c2=O
II = O=C1c2ccc(Cl)cc2-n2c1nc1ccccc1c2=O
In terms of reported pIC50, does I or II have the smaller number? Select an item and report its label. II
(II: 3.65, I: 6.03)

1 = NS(=O)(=O)NCCNc1nonc1C(=NO)Nc1ccc(F)c(Br)c1
2 = O=C1c2ccccc2-n2c1nc1ccc(F)cc1c2=O
In terms of reported pIC50, does 1 or 2 have the smaller number? Select an item and report its label. 1

I = O=C1c2cc(F)ccc2-n2c1nc1ccc(F)cc1c2=O
II = O=C1c2c(Cl)cccc2-n2c1nc1ccccc1c2=O
In terms of reported pIC50, does I or II have the smaller number? Select an item and report its label. II
(II: 4.35, I: 5.83)

a = O=C1c2cc([N+](=O)[O-])ccc2-n2c1nc1ccccc1c2=O
b = O=C1c2ccccc2-n2c1nc1ccccc1c2=O
In terms of reported pIC50, does a or b have the smaller number? Select an item and report its label. b

---

target: Tryptophan 2,3-dioxygenase (Homo sapiens); assay: Inhibition of TDO in human U87 MG cells using L-Trp as substrate after 8 hrs; type: cell-based, U-87MG ATCC
PARAMETER MEASURED: IC50 (nM)

A = O=C1c2cc(F)ccc2-n2c1nc1ccc(F)cc1c2=O
B = O=C1c2ccc(Cl)cc2-n2c1nc1ccccc1c2=O
In terms of reported IC50, does A or B have the smaller number? Select an item and report its label. A
(A: 62 nM, B: 957 nM)

---

biological target: UniProt:P48775; assay: Inhibition of TDO (unknown origin)
PARAMETER MEASURED: pKi
Hey, just a heads up that pKi is the negative log base 10 of the concentration in molar.

Entry O=C1c2cc(O)c(O)cc2OC(c2ccc(O)c(O)c2)C1O (stereo unspecified) , pKi reported as 4.80
